Counter-ions that a name gives are not always drawn.
measurementLabel: melting point

>>> measurement("Cl.Cl.NCC1CCCN(c2nc3c(cc2F)c(=O)n(N)c(=O)n3C2CC2)C1 (centres unmarked)")
"152 to 154 °C"
>>> measurement("Cl.N[C@@H]1CN(c2c(F)cc3c(=O)n(N)c(=O)n(C4CC4)c3c2Cl)CC12CC2 [Compound 14]")
"177 to 179 °C"
>>> measurement("N[C@H]1CCN(c2c(F)c(F)c3c(=O)n(N)c(=O)n(C4CC4)c3c2F)C1 (as salt: hydrochloride) [Compound 9]")
"271 °C (dec.)"
>>> measurement("COc1c(N2CCC(CN)CC2)c(F)cc2c(=O)n(N)c(=O)n(C3CC3)c12.Cl")
"201 °C"
>>> measurement("CCn1c(=O)n(N)c(=O)c2cc(F)c(N3CC[C@@H](C(C)(C)N)C3)cc21.Cl")
"> 250 °C"
>>> measurement("COc1c(N2C[C@@H](CN)[C@@H](F)C2)c(F)cc2c(=O)n(N)c(=O)n(C3CC3)c12.Cl (relative stereo)")
"169 to 179 °C"
>>> measurement("Cl.NC1C2CN(c3nc4c(cc3F)c(=O)n(N)c(=O)n4C3CC3)CC12 (centres unmarked)")
"268 to 270 °C"
>>> measurement("COc1c(N2CCC(C(=O)O)C2)c(F)cc2c(=O)n(N)c(=O)n(C3CC3)c12.O=C(O)C(F)(F)F (centres unmarked)")
"252 °C (dec.)"
>>> measurement("CC1COc2c(N3CC[C@H](N)C3)c(F)cc3c(=O)n(N)c(=O)n1c23.Cl (some centres unmarked)")
"202 to 204 °C"
>>> measurement("Cl.NC[C@@H]1CN(c2nc3c(cc2F)c(=O)n(N)c(=O)n3C2CC2)C[C@H]1C(F)(F)F (relative stereo)")
"214 to 216 °C"
>>> measurement("CC(C)NCC1CCN(c2c(F)cc3c(=O)n(N)c(=O)n(C4CC4)c3c2Cl)C1.Cl (centres unmarked)")
"125 to 127 °C"
>>> measurement("Cc1c(N2CC(CN)C3(CC3)C2)c(F)cc2c(=O)n(N)c(=O)n(C3CC3)c12.Cl (centres unmarked)")
"167 °C"
>>> measurement("Cc1c(F)c(N2CCC(N)C2)cc2c1c(=O)n(N)c(=O)n2C1CC1.Cl (centres unmarked)")
"238 to 240 °C"
>>> measurement("Cc1c(N2CC[C@@H](C(C)(C)N)C2)c(F)cc2c(=O)n(N)c(=O)n(C3CC3)c12.Cl")
"200 to 202 °C"
>>> measurement("Cc1c(N2CCC(N)C2)c(F)cc2c(=O)n(N)c(=O)n(C3CC3)c12.O=C(O)C(F)(F)F (centres unmarked)")
"110 to 112 °C"
>>> measurement("COc1c(N2C[C@@H](CN)[C@H](F)C2)c(F)cc2c(=O)n(N)c(=O)n(C3CC3)c12.Cl (relative stereo)")
"144 to 147 °C"
>>> measurement("Cl.Nn1c(=O)c2cc(F)c(N3CCC(CNCC(F)(F)F)C3)c(Cl)c2n(C2CC2)c1=O (centres unmarked)")
"163 to 164 °C"
>>> measurement("COc1c(N2C[C@@H](CN)[C@H](C)C2)c(F)cc2c(=O)n(N)c(=O)n(C3CC3)c12.Cl (relative stereo)")
"189 °C"
>>> measurement("Cl.NCC1CCCN(c2c(F)cc3c(=O)n(N)c(=O)n(C4CC4)c3c2Cl)C1 (centres unmarked)")
"131 to 133 °C"
>>> measurement("Cc1c(N2CC3CC3(CN)C2)c(F)cc2c(=O)n(N)c(=O)n(C3CC3)c12.Cl (centres unmarked)")
"189 to 194 °C"
>>> measurement("Cl.N[C@H]1CCN(c2nc3c(cc2F)c(=O)n(N)c(=O)n3C2CC2)C1")
"213 to 215 °C"
>>> measurement("Cl.NCC1(Cc2ccccc2)CCN(c2c(F)cc3c(=O)n(N)c(=O)n(C4CC4)c3c2Cl)C1 (centres unmarked)")
"148 to 150 °C"
>>> measurement("COc1c(N2CCC(O)(CN)C2)c(F)cc2c(=O)n(N)c(=O)n(C3CC3)c12.Cl (centres unmarked)")
"202 °C"
>>> measurement("CN[C@H](C)[C@@H]1CCN(c2nc3c(cc2F)c(=O)n(N)c(=O)n3C2CC2)C1.Cl")
"137 to 139 °C"
>>> measurement("Cl.Nn1c(=O)c2cc(F)c(N3CCC(N)(c4ccccc4)C3)c(Cl)c2n(C2CC2)c1=O (centres unmarked)")
"198 to 200 °C"
>>> measurement("CN[C@@H](C)[C@@H]1CCN(c2c(F)cc3c(=O)n(N)c(=O)n(C4CC4)c3c2C)C1.Cl")
"153 to 155 °C"
>>> measurement("COc1c(N2CCCC(CN)C2)c(F)cc2c(=O)n(N)c(=O)n(C3CC3)c12.Cl (centres unmarked)")
"201 °C"
>>> measurement("CC1CCc2c(N3CC[C@@H]([C@H](C)N)C3)c(F)cc3c(=O)n(N)c(=O)n1c23.Cl (some centres unmarked)")
"197 to 199 °C"
>>> measurement("COC1CN(c2c(F)cc3c(=O)n(N)c(=O)n(C4CC4)c3c2C)CC1N.Cl (centres unmarked)")
"> 250 °C"
>>> measurement("Nc1c(F)c(N2CC[C@H](N)C2)c(F)c2c1c(=O)n(N)c(=O)n2C1CC1 (as salt: hydrochloride) [Compound 11]")
"215 to 218 °C (dec.)"
>>> measurement("Cc1c(N2CCC(CN)(c3ccccc3)C2)c(F)cc2c(=O)n(N)c(=O)n(C3CC3)c12.Cl (centres unmarked)")
"227 to 231 °C"
>>> measurement("CC(C)(N)[C@@H]1CCN(c2c(F)cc3c(=O)n(N)c(=O)n(C4CC4)c3c2Cl)C1.Cl")
"117 to 120 °C"
>>> measurement("COCC1(CN)CCN(c2c(F)cc3c(=O)n(N)c(=O)n(C4CC4)c3c2C)C1.Cl (centres unmarked)")
"172 to 177 °C"
>>> measurement("Cc1c(N2CCC(C(=O)O)C2)c(F)cc2c(=O)n(N)c(=O)n(C3CC3)c12.O=C(O)C(F)(F)F (centres unmarked)")
"226 °C (dec.)"
>>> measurement("Cc1c(N2CC(C(C)N)C(C)(C)C2)c(F)cc2c(=O)n(N)c(=O)n(C3CC3)c12.Cl (centres unmarked)")
"246 °C"
